Numbers sourced from patent US6723753B2.

- study-system: CETP (Homo sapiens)
- protocol-summary: Assay of CETP Inhibition using Purified Components (Reconstituted Buffer Assay)
- Type: biochemical
- Set-up: made in house; host or cells: CHO cells (serum-free conditioned medium)
- experimental-setup: Inhibition of CETP activity in reconstituted buffer assay; transfer of [3H]CE from HDL to LDL; read-out: IC50
pIC50: −log10 of the molar value.
reported-endpoint: pIC50

COC(=O)c1ccc(CN(CC(O)C(F)(F)F)c2cccc(OC(F)(F)F)c2)cc1 (stereo not drawn) :: < 4.00
Cc1cccc(CN(Cc2cccc(F)c2)CC(O)C(F)(F)F)c1 (stereo not drawn) :: < 4.00

Per the reported CETP (Homo sapiens) data, Cc1ccc(CN(CC(O)C(F)(F)F)c2cccc(C)c2)cc1 (stereo not drawn) has pIC50 of < 4.00

----------
- study-system: CETP (Homo sapiens)
- protocol-summary: Assay of CETP Inhibition using Purified Components (Reconstituted Buffer Assay)
- Type: biochemical
- Design: made in house; host or cells: CHO cells (serum-free conditioned medium)
- experimental-setup: Inhibition of CETP activity in reconstituted buffer assay; transfer of [3H]CE from HDL to LDL; read-out: IC50
pIC50: −log10 of the molar value.
# key: entry, value: pIC50

These solved cases illustrate the format of a correct answer.
COc1ccccc1N(Cc1ccc(C(F)(F)F)cc1)CC(O)C(F)(F)F (stereo not shown) :: < 4.00
Oc1cc(O)cc(CN(CC(O)C(F)(F)F)c2cccc(OC(F)(F)F)c2)c1 (stereo not shown) :: < 4.00
CN(C)CCOc1cccc(N(Cc2cccc(OC(F)(F)C(F)F)c2)CC(O)C(F)(F)F)c1 (stereo not shown) :: < 4.30
CS(=O)(=O)c1ccc(Sc2cccc(N(Cc3cccc(OC(F)(F)C(F)F)c3)CC(O)C(F)(F)F)c2)cc1 (stereo not shown) :: < 4.30

Reported CETP (Homo sapiens) pIC50 for item Oc1cc(CN(CC(O)C(F)(F)F)c2cccc(OC(F)(F)F)c2)cc(O)c1O (stereo not shown) was < 4.00

The observed pIC50 for OC(CN(Cc1cc(F)cc(F)c1)c1cccc(OC(F)(F)F)c1)C(F)(F)F (stereo not shown) when tested with CETP (Homo sapiens) stands at < 4.00

The reported CETP (Homo sapiens) pIC50 of Cc1ccc(CN(CC(O)C(F)(F)F)c2cccc(C(F)(F)F)c2F)cc1 (stereo not shown) is < 4.00

----------
- study-system: CETP (Homo sapiens, UniProt P11597)
- Sequence (P11597 18-493): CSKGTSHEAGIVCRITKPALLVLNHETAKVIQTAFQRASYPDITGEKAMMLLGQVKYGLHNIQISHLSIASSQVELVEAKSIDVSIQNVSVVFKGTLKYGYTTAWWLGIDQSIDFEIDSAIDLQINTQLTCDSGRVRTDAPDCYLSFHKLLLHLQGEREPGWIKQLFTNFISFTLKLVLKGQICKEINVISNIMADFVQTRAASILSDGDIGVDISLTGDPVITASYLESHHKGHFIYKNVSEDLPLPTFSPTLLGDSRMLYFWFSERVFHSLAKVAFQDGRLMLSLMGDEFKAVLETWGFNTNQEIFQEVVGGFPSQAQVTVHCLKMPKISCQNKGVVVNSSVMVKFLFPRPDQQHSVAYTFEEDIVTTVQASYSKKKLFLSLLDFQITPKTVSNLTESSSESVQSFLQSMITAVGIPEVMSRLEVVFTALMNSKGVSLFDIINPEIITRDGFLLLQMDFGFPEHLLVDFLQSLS
- protocol-summary: Assay of CETP Inhibition using Purified Components (Reconstituted Buffer Assay)
- Assay type: biochemical
- Parameters: made in house; host or cells: CHO cells (serum-free conditioned medium)
- experimental-setup: Inhibition of CETP activity in reconstituted buffer assay; transfer of [3H]CE from HDL to LDL; read-out: IC50
reported-endpoint: IC50 (nM)

Oc1cccc(CN(CC(O)C(F)(F)F)c2cccc(OC(F)(F)F)c2)c1 (centres unmarked) :: 40000
OC(CN(Cc1cccc(Oc2ccccc2)c1)c1ccc(C(F)(F)F)cc1)C(F)(F)F (centres unmarked) :: 65000
O=[N+]([O-])c1ccc(Sc2cccc(N(Cc3cccc(OC(F)(F)C(F)F)c3)CC(O)C(F)(F)F)c2)cc1 (centres unmarked) :: 640

[A] O=[N+]([O-])c1c(F)cccc1Oc1cccc(N(Cc2cccc(OC(F)(F)C(F)F)c2)CC(O)C(F)(F)F)c1 (centres unmarked)
[B] COc1cccc(Nc2cccc(N(Cc3cccc(OC(F)(F)C(F)F)c3)CC(O)C(F)(F)F)c2)c1 (centres unmarked)
Higher IC50 between A and B ? Answer with the label corresponding to your selection. B
(B: 1200 nM, A: 770 nM)
